Assay target: UniProt O70528
Sequence (O70528 whole entry): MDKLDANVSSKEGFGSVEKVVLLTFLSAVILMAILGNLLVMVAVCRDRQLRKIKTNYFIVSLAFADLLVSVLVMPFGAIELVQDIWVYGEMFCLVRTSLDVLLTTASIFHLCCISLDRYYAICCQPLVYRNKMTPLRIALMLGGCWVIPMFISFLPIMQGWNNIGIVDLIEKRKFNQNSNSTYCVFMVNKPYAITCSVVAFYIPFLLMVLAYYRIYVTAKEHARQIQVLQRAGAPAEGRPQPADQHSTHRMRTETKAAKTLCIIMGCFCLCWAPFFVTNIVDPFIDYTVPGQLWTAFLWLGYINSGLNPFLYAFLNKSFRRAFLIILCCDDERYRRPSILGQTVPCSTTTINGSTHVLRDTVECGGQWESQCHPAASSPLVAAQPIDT
pKi: −log10 of the molar value.
Reported property: pKi

# value lookup — system UniProt O70528, readout pKi, item O=C1Nc2cccc3c2C1(CCCCN1CC=C(c2ccccc2)CC1)CCC3 (stereo unspecified)
< 6.00

====

Assay target: UniProt:P50406
Sequence (P50406 whole entry): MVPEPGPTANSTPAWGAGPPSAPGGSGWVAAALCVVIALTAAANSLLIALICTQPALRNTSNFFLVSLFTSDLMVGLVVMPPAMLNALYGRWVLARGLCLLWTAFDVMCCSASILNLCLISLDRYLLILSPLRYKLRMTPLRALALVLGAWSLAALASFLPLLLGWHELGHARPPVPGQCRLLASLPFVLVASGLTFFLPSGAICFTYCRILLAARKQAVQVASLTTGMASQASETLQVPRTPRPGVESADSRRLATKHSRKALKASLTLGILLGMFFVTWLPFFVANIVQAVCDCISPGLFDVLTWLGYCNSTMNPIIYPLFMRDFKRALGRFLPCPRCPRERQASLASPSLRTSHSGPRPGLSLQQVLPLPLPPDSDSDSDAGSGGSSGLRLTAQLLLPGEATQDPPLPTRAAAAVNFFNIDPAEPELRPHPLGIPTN
Experiment description: Compound was evaluated for its ability to displace [3H]LSD binding from human recombinant 5-hydroxytryptamine 6 receptor
Reported property: Ki (nM)
One number for each entry, in nM.

Requested read-out: Ki. Entry: O=C1Nc2cccc3c2C1(CCCCN1CC=C(c2ccccc2)CC1)CCC3 (stereo unspecified)
525

====

Assay target: 5-hydroxytryptamine receptor 1A (Homo sapiens)
Sequence (P08908 whole entry): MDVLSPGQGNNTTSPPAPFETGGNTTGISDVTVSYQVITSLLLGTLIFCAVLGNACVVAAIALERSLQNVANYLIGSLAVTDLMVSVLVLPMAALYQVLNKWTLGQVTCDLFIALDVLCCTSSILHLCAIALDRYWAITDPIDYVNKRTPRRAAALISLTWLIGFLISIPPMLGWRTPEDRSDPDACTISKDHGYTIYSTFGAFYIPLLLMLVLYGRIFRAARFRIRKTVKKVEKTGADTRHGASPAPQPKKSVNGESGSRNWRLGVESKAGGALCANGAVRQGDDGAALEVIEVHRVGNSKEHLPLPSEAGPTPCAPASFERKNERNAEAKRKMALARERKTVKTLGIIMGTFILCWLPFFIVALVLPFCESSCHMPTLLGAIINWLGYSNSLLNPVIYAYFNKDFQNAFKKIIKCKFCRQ
Experiment description: Compound was evaluated for its ability to displace [3H]8-OH-DPAT binding from human 5-hydroxytryptamine 1A receptor in mammalian cells
Reported property: Ki (nM)
Answers are plain numbers, in nM.

Requested read-out: Ki. Entry: O=C1Nc2cccc3c2C1(CCCCN1CC=C(c2ccccc2)CC1)CCC3 (stereo unspecified)
170

====

Assay target: Serotonin 2 (5-HT2) receptor (Rattus norvegicus, UniProt P30994+P08909+P14842)
Experiment description: Compound was evaluated for its ability to displace [3H]ketanserin binding from […] rat cerebral cortex membranes 5-hydroxytryptamine 2 receptor
Type: tissue-based
Field: Log Ki. Provide a value for each of the compounds that follow.
One number for each entry.

Sample answers from the record:
INSERT INTO results (compound, observed_result) VALUES
  ('COc1ccccc1N1CCN(CCCCC23CCCc4cccc(c42)NC3=O)CC1 (stereo not drawn)', -6.95),
  ('N#Cc1ccccc1N1CCN(CCCCC23CCCc4cccc(c42)NC3=O)CC1 (stereo not drawn)', -6.98),
  ('O=C1Nc2cccc3c2C1(CCCN1CCN(c2ccccc2)CC1)CCC3 (stereo not drawn)', -7.79),
  ('O=C1Nc2cccc3c2C1(CCN1CCN(c2ccccc2)CC1)CCC3 (stereo not drawn)', -8.27),
  ('O=C1Nc2cccc3c2C1(CCCCN1CCN(c2ccccn2)CC1)CCC3 (stereo not drawn)', -7.27);

Respectfully, I request Log Ki for each entry included below.
1. O=C1Nc2cccc3c2C1(CCCCN1CCN(c2ccccc2)CC1)CCC3 (stereo not drawn)
2. O=C1Nc2cccc3c2C1(CCCCN1CC=C(c2ccccc2)CC1)CCC3 (stereo not drawn)

1: -7.37; 2: -7.01

====

Assay target: 5-hydroxytryptamine receptor 7 (Homo sapiens)
Sequence (P34969 whole entry): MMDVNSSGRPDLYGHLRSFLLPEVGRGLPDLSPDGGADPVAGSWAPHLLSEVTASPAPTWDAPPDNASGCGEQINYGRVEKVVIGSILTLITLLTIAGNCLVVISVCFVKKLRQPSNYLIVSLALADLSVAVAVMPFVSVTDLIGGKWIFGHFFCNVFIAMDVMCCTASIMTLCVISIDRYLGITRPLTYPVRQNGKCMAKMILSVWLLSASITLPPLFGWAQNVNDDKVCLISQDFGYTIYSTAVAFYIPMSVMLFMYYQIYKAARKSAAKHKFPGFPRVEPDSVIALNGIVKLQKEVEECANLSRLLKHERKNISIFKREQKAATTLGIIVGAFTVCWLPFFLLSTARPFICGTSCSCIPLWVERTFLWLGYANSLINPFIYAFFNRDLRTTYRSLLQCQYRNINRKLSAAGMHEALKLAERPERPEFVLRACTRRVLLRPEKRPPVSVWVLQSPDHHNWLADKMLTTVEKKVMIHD
Experiment description: Compound was evaluated for its ability to displace [3H]5-CT binding from cloned human 5-hydroxytryptamine 7 receptor expressed in COS-7 cells.
Assay type: cell-based
Reported property: Ki (nM)
Numbers only, in nM.

INSERT INTO measurements (compound, assay_target, result_unit, observed_result) VALUES
  ('COc1ccccc1N1CCN(CCCCC23CCCc4cccc(c42)NC3=O)CC1 (stereo not given)', '5-hydroxytryptamine receptor 7 (Homo sapiens)', 'nM', 5.13);

Respectfully, I request Ki for each entry included below.
1. O=C1Nc2cccc3c2C1(CCN1CCN(c2ccccc2)CC1)CCC3 (stereo not given)
2. O=C1Nc2cccc3c2C1(CCCCN1CC=C(c2ccccc2)CC1)CCC3 (stereo not given)
3. O=C1Nc2cccc3c2C1(CCCN1CCN(c2ccccc2)CC1)CCC3 (stereo not given)

[102, 2.14, 5.25]
